molecular target: T1, Human trkC-Fc fusion protein (human, UniProt Q16288 32-429); test: BIAcore SPR, human trkC-Fc on chip; KD calculated from koff with 2256 kon 5E5 1/Ms
T1 construct: Immobilised on CM5 chip for BIAcore; also called htrkC; not shown: Fc part not described
Entries and their measured pKd follow.
pKd here: minus log base 10 of the concentration, concentration in moles per litre.

Here's what some known entries look like.
| Binder | pKd |
| --- | --- |
| Fab clone 129(T8)(H8xE10)(10B) (Fab, V domains shown) VH: QVQLVQSGAEVKKPGASVKVSCKASGYTFTSYRIHWVRQAPGQGLEWMGEIYPSNSRTNYNEKFKSRVTMTRDTSTSTVYMELSSLRSEDTAVYYCARKYYYGNSRRSWYFDVWGQGTTVTVS VL: DIQMTQSPSSLSASVGDRVTITCRASESIDNYGISFLAWYQQKPGKAPKLLIYAASNRGSGVPSRFSGSGSGTDFTFTISSLQPEDIATYYCQQSKTVPRTFGQGTKLEIKR | 8.80 |
| Fab clone 129(C2) (Fab, V domains shown) VH: QVQLVQSGAEVKKPGASVKVSCKASGYTFTSYWMHWVRQAPGQGLEWMGEIYPSNGRTNYNEKFKSRVTMTGDTSTSTVYMQLSSLRSEDTAVYYCARKYYYGNSKRSWYFDVWGQGTTVTVS VL: DIQMTQSPSSLSASVGDRVTITCRASESVDNYGISFMNWYQQKPGQPPKLLIYAASNQGSGVPSRFSGTGSGTDFTFTISSLQPEDIATYYCQQSKEVPRTFGQGTKLEIKR | 8.33 |
| Fab clone 129(T8) (Fab, V domains shown) VH: QVQLVQSGAEVKKPGASVKVSCKASGYTFTSYWMHWVRQAPGQGLEWMGEIYPSNGRTNYNEKFKSRATMTGDKSTSTVYMELSSLRSEDTAVYYCARKYYYGNSRRSWYFDVWGQGTTVTVS VL: DIQMTQSPSSLSASVGDRVTITCRASESVDNYGISFMNWYQQKPGKAPKLLIYAASNQGSGVPSRFSGSGSGTDFTFTISSLQPEDIATYYCQQSKTVPRTFGQGTKLEIKR | 8.52 |

Now for another entry.
### Prompt What does the data say about its pKd? Entry: Fab clone 129(T8)(E10) (Fab, V domains shown, Light chain changes are the same as in A5) VH: QVQLVQSGAEVKKPGASVKVSCKASGYTFTSYRLHWVRQAPGQGLEWMGEIYPSNGRTNYNEKFESRATMTGDKSTSTVYMELSSLRSEDTAVYYCARKYYYGNSRRSWYFDVWGQGTTVTVS VL: DIQMTQSPSSLSASVGDRVTITCRASESIDNYGISFLAWYQQKPGKAPKLLIYAASNRGSGVPSRFSGSGSGTDFTFTISSLQPEDIATYYCQQSKTVPRTFGQGTKLEIKR
### Response 8.49
